- system-name: Protein RecA (Mycobacterium tuberculosis, UniProt P9WHJ3)
- Sequence (P9WHJ3 whole entry): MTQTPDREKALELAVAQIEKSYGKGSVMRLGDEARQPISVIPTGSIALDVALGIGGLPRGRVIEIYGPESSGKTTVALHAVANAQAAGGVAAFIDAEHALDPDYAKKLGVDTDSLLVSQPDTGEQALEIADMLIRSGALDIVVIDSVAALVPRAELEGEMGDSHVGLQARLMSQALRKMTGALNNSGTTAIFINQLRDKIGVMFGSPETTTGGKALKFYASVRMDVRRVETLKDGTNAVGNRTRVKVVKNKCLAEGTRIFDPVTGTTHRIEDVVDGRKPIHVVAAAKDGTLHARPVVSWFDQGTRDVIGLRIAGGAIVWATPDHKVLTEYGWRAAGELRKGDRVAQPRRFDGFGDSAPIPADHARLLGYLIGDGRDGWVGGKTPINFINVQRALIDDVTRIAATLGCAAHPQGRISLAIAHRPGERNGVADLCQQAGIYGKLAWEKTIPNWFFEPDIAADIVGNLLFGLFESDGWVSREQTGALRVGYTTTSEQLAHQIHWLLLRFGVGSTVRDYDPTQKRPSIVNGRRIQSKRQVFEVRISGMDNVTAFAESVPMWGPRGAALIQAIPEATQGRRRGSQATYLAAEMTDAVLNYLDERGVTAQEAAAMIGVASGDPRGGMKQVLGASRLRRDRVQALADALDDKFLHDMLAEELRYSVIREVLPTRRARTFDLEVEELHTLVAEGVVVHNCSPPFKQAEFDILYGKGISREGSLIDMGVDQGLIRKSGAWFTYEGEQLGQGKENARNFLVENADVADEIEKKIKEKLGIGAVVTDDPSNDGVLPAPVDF
- assay-name: Fluorescence Cell-Free Homogeneous Dose Retest to Identify Inhibitors of RecA-Intein Splicing Activity. [Related pubchem assays (depositor defined):AID2097, AID2223, AID489010, AID492950]
- Type: functional
Activity calls are given as the source filed them. No stated cut-off is given here; in the data, actives have a measured EC50 and inactives only a lower limit.
Entry note: the call must match one of TRUE (active), FALSE (inactive)

1. O=C(NCc1cccnc1)/C(=C/c1ccc(-c2ccc(Cl)cc2)o1)S(=O)(=O)c1ccccc1 : TRUE

Lab note: next compound to report on.
-- ask Please state the recorded outcome for this compound: `CCC(=O)Nc1c(C)nn(C(=O)CC)c1C`
-- reply FALSE
